Numbers sourced from ChEMBL document CHEMBL1137467.

Please provide measured logP for the entries that follow.
# ASSAY PROTOCOL: Lipophilicity, log P of the compound
# Assay type: physicochemical
# CONDITION NOTES: octanol/water

# input Give the reported value of logP for this record: `NNC(=O)c1cc(-c2ccc(Cl)cc2)nn1Cc1ccc(Cl)nc1`
# output 3.12

# input Give the reported value of logP for this record: `NNC(=O)c1cc(-c2ccccc2)nn1Cc1ccccc1`
# output 2.73

# input Give the reported value of logP for this record: `NNC(=O)c1cc(-c2ccc(Cl)cc2)nn1Cc1ccccc1`
# output 3.24

# input Give the reported value of logP for this record: `COc1ccc(-c2cc(C(=O)NN)n(Cc3ccccc3)n2)cc1`
# output 2.87
